Recorded values, source PubChem BioAssay (NCI).

# Tested on: SNB-19 CNS
# experimental-details: NCI-60 one-dose screen, 48 h (100 = growth as untreated, 0 = no growth, -100 = all killed)
# measurement-conditions: 10 µM unless noted
Compounds without any hit were thinned out: in the full panel of roughly 83,000, 20% have a hit.
Let's look at some compounds and their measured growth.
A number alone suffices; assume %.

Example compounds with recorded growth:
> print(dat)
                                    compound  test.system  experimental.value
 1  CCN(CC)CC#CCOC(=O)[C@]1(C)CCC[C@@]2(C)[C@H]1CC(C=O)=C1C=C(C(C)C)CC[C@@H]12   SNB-19 CNS                77.1
 2     Nc1ccc(Nc2nccc(-c3ccc4ccccc4c3)n2)cc1   SNB-19 CNS                62.9
 3  CCCCCC(=O)Oc1ccc(/C(=C(\C)c2ccccc2)c2ccc(OCCN(CC)CC)cc2)cc1   SNB-19 CNS                85.3
 4  COc1cc(OC)c(/C=C/C(=O)c2c(OC)cc(OC)cc2OC)c(OC)c1   SNB-19 CNS                32.8
 5  COc1ccc(C2c3ccc4ccccc4c3Oc3ncnc(N)c32)cc1 (centres undefined)   SNB-19 CNS                91.2
 6          COc1ccc(/C=N\NC(=O)c2ccncc2)cc1O   SNB-19 CNS                95.1
 7  CC(C)(C)n1cc(-c2ccnc(NCCNS(=O)(=O)c3ccccc3)c2)c(-c2cccc(O)c2)n1   SNB-19 CNS                80.8
 8  CCCCCCCCCCCCCC(=O)C(C)N (centres undefined)   SNB-19 CNS                77.5
 9          CCN(CC)CCC(=O)c1ccc(OC)c2ccccc12   SNB-19 CNS                  87
10                     O=C(O)c1ccc(=O)[nH]n1   SNB-19 CNS                 102

Return growth measured with SNB-19 CNS given this compound: COc1ccc(/C=C/C(=O)c2ccc(NC(=O)c3cc4cc5ccccc5nc4s3)cc2)cc1OC
98.8

Record: O=C(Nc1cccc2[nH]c(C(F)(F)F)nc12)c1ccc(Br)cc1F
29.7

Likewise for CCCCNC(=O)NS(=O)(=O)c1ccc(N2N=C(c3cc(C)ccc3C)CC2c2cc(OC)c(OC)c(OC)c2)cc1 (centres undefined) ?
68

// same read-out, input: COc1ccccc1/C=C(/C(=O)c1ccccc1)c1ccccc1
90.8

====

# Tested on: OVCAR-5 ovarian
# experimental-details: NCI-60 one-dose screen, 48 h (100 = growth as untreated, 0 = no growth, -100 = all killed)
# measurement-conditions: 10 µM unless noted
Compounds without any hit were thinned out: in the full panel of roughly 83,000, 20% have a hit.
Label yes (1) when growth >= 90%; otherwise no (0).

Some solved cases for reference:
molecule	discrete-label
O=C1c2cc3c(cc2-c2c1c1cc(Cl)c(Cl)cc1c(=O)n2C[C@H](O)CO)OCO3	no (0)
C=C1CCC2C3(C)COC(c4ccc(SC)cc4)OC3CCC2(C)C1C/C=C1/C(=O)OCC1O (stereo unspecified)	no (0)
CCCCCN(CCCCC)CCC[C@@H](C)[C@H]1CC[C@H]2[C@@H]3[C@H](OCCCN)C[C@@H]4C[C@H](OCCCN)CC[C@]4(C)[C@H]3C[C@H](OCCCN)[C@]12C	no (0)
O=C(CN1CCOCC1)Nc1ccc(Cn2nnc3c2C(=O)c2nnn(Cc4ccc(NC(=O)CN5CCOCC5)cc4)c2C3=O)cc1	no (0)
CC(=O)OCC(=O)C1CCC=CC1OC(C)=O (stereo unspecified)	yes (1)

Check if growth >= 90% (inclusive). Item: CC1=NNC(=O)C1C (stereo unspecified)
yes (1)

What do we get for C=C1C(=O)O[C@H]2[C@H]1CC/C(Cn1cc(Cc3c[nH]c4ccccc34)nn1)=C\CC[C@@]1(C)O[C@@H]21 ?
no (0)

Next entry: COC(=S)SCN(CSC(=S)OC)c1ccc(Cl)cc1
yes (1)

Consider next the molecule O=C(Nc1ccc(Nc2cc(Nc3ccccc3)ncn2)cc1)Nc1cc(C(F)(F)F)ccc1F in the same way.
no (0)
